Source: patent US20190233494A1

Molecular target: T1, RXFP1 receptor (endogenous, on OVCAR5 cells) (UniProt Q9HBX9 1-757, limits assumed)
T1 sequence (looked up): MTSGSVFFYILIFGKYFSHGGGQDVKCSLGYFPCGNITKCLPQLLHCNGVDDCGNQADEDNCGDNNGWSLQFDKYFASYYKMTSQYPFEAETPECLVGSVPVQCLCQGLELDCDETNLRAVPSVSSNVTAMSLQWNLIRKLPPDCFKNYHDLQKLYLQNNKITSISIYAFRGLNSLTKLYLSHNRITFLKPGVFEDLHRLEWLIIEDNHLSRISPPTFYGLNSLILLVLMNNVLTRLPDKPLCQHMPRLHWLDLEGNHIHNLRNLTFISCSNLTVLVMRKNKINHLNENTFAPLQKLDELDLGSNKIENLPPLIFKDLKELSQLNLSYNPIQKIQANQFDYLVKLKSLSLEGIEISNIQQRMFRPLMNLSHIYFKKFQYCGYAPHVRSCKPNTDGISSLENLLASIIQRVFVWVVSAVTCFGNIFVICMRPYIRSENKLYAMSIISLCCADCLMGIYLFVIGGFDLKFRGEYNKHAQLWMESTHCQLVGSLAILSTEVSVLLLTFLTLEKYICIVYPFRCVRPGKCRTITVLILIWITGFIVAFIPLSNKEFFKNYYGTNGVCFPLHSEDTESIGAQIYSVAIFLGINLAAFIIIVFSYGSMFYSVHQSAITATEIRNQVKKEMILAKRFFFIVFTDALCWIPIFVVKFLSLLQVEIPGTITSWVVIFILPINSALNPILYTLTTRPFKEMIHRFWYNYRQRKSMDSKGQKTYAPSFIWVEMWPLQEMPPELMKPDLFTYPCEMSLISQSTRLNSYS
Assay: cell-based or functional assay
Starred links: 1 amine or outer side, 2 acyl side, 3 side chain; linkers in the order of their positions; H or OH if unused. Non-standard residues stand in square brackets, D forms with d. Groups on a side chain read outwards from the residue. *: point of attachment. TTDS = 4-[3-[2-[2-(3-aminopropoxy)ethoxy]ethoxy]propylamino]-4-oxo-butanoyl; γGlu = O=C(O)[C@H](CCC(=O)[*:2])N[*:1]; Stearoyl = CCCCCCCCCCCCCCCCCC(=O)*; Palmitoyl = CCCCCCCCCCCCCCCC(=O)*; αMeK = C[C@](N)(CCCCN)C(=O)O; Aib = CC(C)(N)C(=O)O
The reader will find reported EMax, OVCAR 5 cells (cAMP) values listed item by item below.
MEASUREMENT_NAME: EMax, OVCAR 5 cells (cAMP)

Ac-LEGRERVRAK(Ac)I[Aib][Aib]EGK([TTDS-TTDS-TTDS-γGlu-γGlu-γGlu-Palmitoyl])STFS[αMeK]RAK(Ac)-NH2 [peptide of SEQ ID NO: 27]; 98%
Ac-LEGREKVR[Aib]K(Ac)I[Aib][Aib]EGK([TTDS-TTDS-TTDS-γGlu-γGlu-γGlu-Palmitoyl])STFS[αMeK]RAK(Ac)-NH2 [peptide of SEQ ID NO: 29]; 88%
Ac-LEGREKVRAK(Ac)I[Aib][Aib]EGK([TTDS-TTDS-TTDS-γGlu-γGlu-γGlu-Palmitoyl])STFSRRAK(Ac)-NH2 [peptide of SEQ ID NO: 87]; 96%
Ac-LEGREKVRAK(Ac)I[Aib][Aib]EGK([TTDS-TTDS-TTDS-γGlu-γGlu-γGlu-Stearoyl])STFS[αMeK]RAK(Ac)-NH2 [peptide of SEQ ID NO: 7]; 95%
